System: FAAH
test-details: competitive ABPP of pPAFAH versus proteome hydrolases – biochemical, gel-based, FP-Rh fluorescence, complex proteome, SAR compounds, selectivity assay for pPAFAH inhibitor project, SAR follow-up (AID 588774);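 note: 0% = DMSO-only band intensity and 100% = blank gel background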
condition-set: inhibition, at 0.1 µM, stronger effect = higher value
In this section we review reported inhibition values for a set of molecules.
Give a bare numeral; the unit % is implied.

q: inhibition for O=C(N1CCOCC1)n1oc2cc(Cl)ccc2c1=O ?
a: 83

q: inhibition for Cc1cc(N2CCN(C(=O)n3ncc(-c4ccc(Cl)c(Cl)c4)n3)CC2)c2ccccc2n1 ?
a: 29

q: inhibition for Cc1cc(N2CCN(C(=O)n3ncc(-c4ccc(OC(F)(F)F)cc4)n3)CC2)c2ccccc2n1 ?
a: 38

q: inhibition for Cc1cc(N2CCN(C(=O)Oc3noc4cc(Cl)ccc34)CC2)c2ccccc2n1 ?
a: 87

q: inhibition for O=C(Oc1noc2cc(Cl)ccc12)N1CCCCC1 ?
a: 96
